Where do these numbers come from? They come from patent US10301352B2.

- testSummary: In vitro peptidomimetic stability in human plasma (LC/MS)
- Format: in vitro ADME
- conditionDetails: human plasma from healthy donors, 37° C., TFA salt; read-out: half-life time
Non-standard residues stand in square brackets, D forms with d. Residues, ends and D or L forms follow the SMILES beside them. ξ: configuration not given here. hArg = N=C(N)NCCCC[C@H](N)C(=O)O; Dab = NCC[C@H](N)C(=O)O; ξP = O=C(O)C1CCCN1
readoutType: half-life at 0.35 μmol/mL (h)
Provide only the numeric value, understood in h.

## Task Could you tell me which half-life at 0.35 μmol/mL is on file for N=C(N)NCCCC[C@H](N)C(=O)NCCCC[C@H](N)C(=O)N1CCCC1C(=O)N[C@@H](CCN)C(=O)N[C@@H](CCCNC(=N)N)C(=O)O (stereo partly drawn) [compound 2, Lys(hArg)-Pro-Dab-Arg] (H-K(hArg)[ξP][Dab]R-OH) ?
## Result 0.667
